Each record here notes measured shrunken log2 fold change.
- System: Escherichia coli TOP10
- Assay Comment: shrunken log2 fold change of peptide-encoding DNA abundance (4.5 h post-induction vs induction); higher = less antimicrobial activity (less host growth inhibition)
- Test Settings: time post-induction: 4.5 h; library: site-saturation at positions 5, 18, 19, 20

Here is how some sequences turned out for shrunken log2 fold change.
Primary Sequence | shrunken log2 fold change
RRIRPRPPRLPRPRPRPLWVPRP | 0.165
RRIRERPPRLPRPRPRPVDKPRP | -0.0448
RRIRERPPRLPRPRPRPQWTPRP | -0.0833
RRIRNRPPRLPRPRPRPMSKPRP | -0.197
RRIRKRPPRLPRPRPRPIRHPRP | 0.132

Sample RRIRQRPPRLPRPRPRPWSLPRP ; shrunken log2 fold change observed: -0.0828

Sample RRIRWRPPRLPRPRPRPRNPPRP ; shrunken log2 fold change observed: 0.113

Sample RRIRGRPPRLPRPRPRPHDLPRP ; shrunken log2 fold change observed: -0.00843

###

- Tested on: Escherichia coli TOP10
- Assay Comment: shrunken log2 fold change of peptide-encoding DNA abundance (4.5 h post-induction vs induction); higher = less antimicrobial activity (less host growth inhibition)
- Test Settings: time post-induction: 4.5 h; library: site-saturation at positions 5, 18, 19, 20
Entry flag: met if shrunken log2 fold change reaches -0.1; not met if it does not.

Some solved cases for reference:
Primary Sequence | Qualitative Label
RRIRFRPPRLPRPRPRPPHIPRP | not met
RRIRYRPPRLPRPRPRPWYFPRP | not met

-- ask Is shrunken log2 fold change for RRIRTRPPRLPRPRPRPHNEPRP at or above -0.1?
-- reply not met

-- ask Is shrunken log2 fold change for RRIRNRPPRLPRPRPRPYKQPRP at or above -0.1?
-- reply met

-- ask Is shrunken log2 fold change for RRIRHRPPRLPRPRPRPQFVPRP at or above -0.1?
-- reply not met

-- ask Is shrunken log2 fold change for RRIRPRPPRLPRPRPRPLEGPRP at or above -0.1?
-- reply met

-- ask Is shrunken log2 fold change for RRIRARPPRLPRPRPRPCFMPRP at or above -0.1?
-- reply met

-- ask Is shrunken log2 fold change for RRIRRRPPRLPRPRPRPYHIPRP at or above -0.1?
-- reply not met

-- ask Is shrunken log2 fold change for RRIRSRPPRLPRPRPRPATLPRP at or above -0.1?
-- reply met

-- ask Is shrunken log2 fold change for RRIRTRPPRLPRPRPRPFWNPRP at or above -0.1?
-- reply not met

-- ask Is shrunken log2 fold change for RRIRWRPPRLPRPRPRPKLGPRP at or above -0.1?
-- reply met

-- ask Is shrunken log2 fold change for RRIRLRPPRLPRPRPRPRWLPRP at or above -0.1?
-- reply met

###

- System: Escherichia coli TOP10;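 also: peptides expressed intracellularly from a pBAD plasmid library in pooled LB shake-flask culture, induced with 0.3% L-arabinose, DNA abundance read by NGS, three biological replicates, DESeq2 with apeglm shrinkage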
- Assay Comment: shrunken log2 fold change of peptide-encoding DNA abundance (4.5 h post-induction vs induction); higher = less antimicrobial activity (less host growth inhibition)
- Test Settings: time post-induction: 4.5 h; library: site-saturation at positions 5, 18, 19, 20
Assay Readout: shrunken log2 fold change
Simply state the number, no unit and no words.

Here is how some sequences turned out for shrunken log2 fold change.
Primary Sequence | Measurement Target | shrunken log2 fold change
RRIRLRPPRLPRPRPRPPGQPRP | Escherichia coli TOP10 | 0.625
RRIRGRPPRLPRPRPRPKHEPRP | Escherichia coli TOP10 | 0.679
RRIRIRPPRLPRPRPRPGHVPRP | Escherichia coli TOP10 | -0.0457

# input for lookup
Sample RRIRQRPPRLPRPRPRPANMPRP ; shrunken log2 fold change observed: -0.242
